# credit: the Human Domainome abundance scans (Beltran et al. 2025)

B1: Triacylglycerol hydrolase DDHD2, residues 389 to 447; numbered along this chain, O94830 (parent)
chain: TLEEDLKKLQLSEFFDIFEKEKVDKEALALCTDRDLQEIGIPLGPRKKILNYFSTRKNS

Variants of: B1
Assay Summary: abundance fitness (aPCA) (normalised: wild type 0, dead -1); higher = more abundant; growth selection in yeast, the domain comes from the species named
Condition Description: Homo sapiens
The entries below come with measured abundance fitness values attached.

TLEEDLKKLQLSEFFDIFEKEKVDKEALALCTDRDLFEIGIPLGPRKKILNYFSTRKNS [Q37F]    -0.01
TLEEDLKKLQLSEFFDIFEKEKVDKEALALCTDRDLQEIGIPLGPRKKALNYFSTRKNS [I49A]    -0.244
LLEEDLKKLQLSEFFDIFEKEKVDKEALALCTDRDLQEIGIPLGPRKKILNYFSTRKNS [T1L]    -0.488
TLEEDLKKLQLSEFFDIFEKERVDKEALALCTDRDLQEIGIPLGPRKKILNYFSTRKNS [K22R]    -0.193
TLEEDLKKLQLSEFFDIFEKEKVDKEALALCTDRDLQEINIPLGPRKKILNYFSTRKNS [G40N]    -0.253
TLEEDLMKLQLSEFFDIFEKEKVDKEALALCTDRDLQEIGIPLGPRKKILNYFSTRKNS [K7M]    -0.424

Switching to the query record.
*Q* May I ask what abundance fitness has been recorded for TLEEDLKKLQLSEFFDIFEKEKVDKEALALCTDRDLQEIGIYLGPRKKILNYFSTRKNS [P42Y] ?
*A* -0.83
